Hey, just so you know, these numbers are from paper PMC4483627.

- Measured On: rat nAChR α7 (Rattus norvegicus)
- Sequence (Q05941 23-502 limits assumed): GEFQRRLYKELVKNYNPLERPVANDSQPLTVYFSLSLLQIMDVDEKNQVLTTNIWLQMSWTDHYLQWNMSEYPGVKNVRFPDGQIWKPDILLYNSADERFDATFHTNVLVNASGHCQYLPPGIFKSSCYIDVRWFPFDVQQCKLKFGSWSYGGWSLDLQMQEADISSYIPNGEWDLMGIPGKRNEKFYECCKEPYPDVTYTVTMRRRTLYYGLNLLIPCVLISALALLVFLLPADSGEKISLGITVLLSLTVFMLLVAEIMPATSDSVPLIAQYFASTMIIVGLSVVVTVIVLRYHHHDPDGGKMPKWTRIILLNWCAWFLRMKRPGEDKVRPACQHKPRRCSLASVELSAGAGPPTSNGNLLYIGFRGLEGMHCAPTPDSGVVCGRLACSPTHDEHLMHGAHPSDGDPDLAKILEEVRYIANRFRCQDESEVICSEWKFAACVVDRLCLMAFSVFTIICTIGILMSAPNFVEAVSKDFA
pIC50: −log10 of the molar value. Positions of bridges follow the written chain, without caps; N, C: chain ends. Residues, ends and D or L forms follow the SMILES beside them.
Measured Property: pIC50

compound="CC(C)C[C@@H]1NC(=O)[C@H](CCC(=O)O)NC(=O)[C@@H]2CCCN2C(=O)[C@H](Cc2c[nH]cn2)NC(=O)[C@H](CC(N)=O)NC(=O)CNC(=O)[C@H](Cc2c[nH]cn2)NC(=O)[C@@H]2CSSC[C@H](NC(=O)CN)C(=O)N[C@@H](CSSC[C@@H](C(N)=O)NC1=O)C(=O)N[C@@H]([C@@H](C)O)C(=O)N[C@@H](Cc1c[nH]cn1)C(=O)N1CCC[C@H]1C(=O)N[C@@H](C)C(=O)N2 [Mr1.7[E2G,V11G,S12N,Δ1]] (H-GCCTHPACHGNHPELC-NH2; disulfide 2-8, 3-16; N-terminus assumed)" recorded_result="< 5.00"
